- Tested on: human plasma
- ASSAY_METHOD_TEXT: Chemical stability in plasma over the UC assay time course (T5hr/T1hr)
- MEASUREMENT_CONTEXT: mean T5hr/T1hr ratio in plasma over all replicates/runs
PROPERTY: Mean Stability
Response field accepts a number only; no unit should be typed.

>>> print(df.to_string())
                                   molecule  assayed_system        property  measured
0  NCC(F)(F)C(F)(F)C(F)(F)C(F)(F)C(F)(F)C(F)(F)F [1H,1H-Perfluoroheptylamine]    human plasma  Mean Stability     0.541
1  C=C(C)C(=O)OCC(F)(F)C(F)(F)C(F)(F)C(F)F [1H,1H,5H-Perfluoropentyl methacrylate]    human plasma  Mean Stability     0.050

Moving on to another molecule below.
# input molecule: OCC(F)(F)C(F)(F)C(F)(F)CO [Hexafluoroamylene] ; wanted: its Mean Stability
0.636

---

- ASSAY_METHOD_TEXT: in vitro
- MEASUREMENT_CONTEXT: both, human, plasma, Fraction Unbound (fu), Run-specific Avg, average of one UC run (run date in line above)
As shown below, each of these compounds has a reported fraction unbound value.
Response field accepts a number only; no unit should be typed.

Use the examples below as a reference point.
                                   compound  measured
0  OCC(F)(F)C(F)(F)C(F)(F)C(F)(F)C(F)(F)C(F)(F)CO    0.0529
1                OCCCC(F)(F)C(F)(F)C(F)(F)F       0.2
2  Cc1ccc(S(=O)(=O)OCC(F)(F)C(F)(F)C(F)(F)C(F)(F)C(F)(F)C(F)F)cc1      0.03
3  OCC(F)(F)C(F)(F)C(F)(F)C(F)(F)C(F)(F)C(F)(F)C(F)(F)C(F)(F)CO [1H,1H,10H,10H-Perfluorodecane-1,10-diol]   0.00495
4  FC(F)(I)C(F)(F)C(F)(F)C(F)(F)C(F)(F)C(F)(F)I      0.36

Moving on to another compound below.
# input compound: O=C(CC(=O)C(F)(F)C(F)(F)C(F)(F)F)c1cccs1 ; wanted: its fraction unbound
0.00714

---

- Tested on: human plasma
- ASSAY_METHOD_TEXT: Chemical stability in plasma over the UC assay time course (T5hr/T1hr)
- MEASUREMENT_CONTEXT: amount measured in plasma sample at 1 hr, run average, unit not given
PROPERTY: Time 1 hr, Run-specific Avg
Response field accepts a number only; no unit should be typed.

>>> df
                                   compound                     property  measured
0  FC(F)(I)C(F)(F)C(F)(F)C(F)(F)C(F)(F)C(F)(F)I [1,6-Diiodoperfluorohexane]  Time 1 hr, Run-specific Avg   7967.83

# input compound: NCC(F)(F)C(F)(F)C(F)(F)C(F)(F)C(F)(F)C(F)(F)F [1H,1H-Perfluoroheptylamine] ; wanted: its Time 1 hr, Run-specific Avg
7312.39

# input compound: NC(=O)C(F)(F)C(F)(F)C(F)(F)F [Heptafluorobutyramide] ; wanted: its Time 1 hr, Run-specific Avg
9336.10

---

- ASSAY_METHOD_TEXT: Hepatic metabolic stability (hepatocyte clearance) assay, substrate depletion
- Format: in vitro ADME, human
- MEASUREMENT_CONTEXT: both sexes, human, hepatocytes, pooled human hepatocyte suspensions, 1 μM; read-out: In Vitro Clint
Criterion: hepatocyte CLint at 1 μM meeting or surpassing 20 µL/min/1e6 cells. Met: satisfied. Not met: not satisfied.

>>> print(df.to_string())
                                   compound  assigned_category
0  NC(=O)C(F)(F)C(F)(F)C(F)(F)C(F)(F)F [Nonafluoropentanamide]          satisfied
1  NC(=O)C(F)(F)C(F)(F)C(F)(F)C(F)(F)C(N)=O [Octafluoroadipamide]      not satisfied
2  OCCC(F)(F)C(F)(F)C(F)(F)C(F)(F)F [4:2 Fluorotelomer alcohol]          satisfied
3  Cc1ccc(S(=O)(=O)OCC(F)(F)C(F)(F)C(F)(F)C(F)(F)C(F)(F)C(F)F)cc1          satisfied

We now examine a further compound.
hey, is hepatocyte CLint at 1 μM for this one >= 20 µL/min/1e6 cells? OCC(F)(F)C(F)(F)C(F)(F)C(F)(F)C(F)(F)C(F)(F)C(F)(F)C(F)(F)CO [1H,1H,10H,10H-Perfluorodecane-1,10-diol]
satisfied

---

- Tested on: human plasma
- ASSAY_METHOD_TEXT: Ultracentrifugation (UC) plasma protein binding assay, fraction unbound in plasma (fup)
- MEASUREMENT_CONTEXT: median fraction unbound in plasma, UC assay Level4
Lab note: class by Fup.Med, see I = under 0.02, II = from 0.02 up to 0.2, III = 0.2 and over

# count of solved cases: 4
>>> df
                                   compound  assayed_system  assigned_category
0  FC(F)(Br)C(F)(F)C(F)(F)C(F)(F)C(F)(F)C(F)(F)Br    human plasma                  I
1  OCCC(F)(F)C(F)(F)C(F)(F)C(F)(F)C(F)(F)C(F)(F)C(F)(F)C(F)(F)F    human plasma                  I
2  CN(C(=O)C(F)(F)C(F)(F)C(F)(F)F)[Si](C)(C)C    human plasma                III
3  N=C(N)C(F)(F)C(F)(F)C(F)(F)C(F)(F)C(F)(F)C(F)(F)C(F)(F)F    human plasma                  I

Could you tell me which band OCC(F)(F)C(F)(F)C(F)(F)C(F)(F)C(F)(F)C(F)(F)F belongs to?
I

Could you tell me which band FC(F)(F)C(F)(F)C(F)(F)C(F)(F)C(F)(F)C(F)(F)C(F)(F)CCI belongs to?
II

Could you tell me which band OCCCCC(F)(F)C(F)(F)C(F)(F)C(F)(F)F belongs to?
II

Could you tell me which band C=CC(=O)OCC(F)(F)C(F)(F)C(F)(F)COC(=O)C=C belongs to?
I

Could you tell me which band OCC(F)(F)C(F)(F)C(F)(F)C(F)(F)C(F)(F)C(F)F belongs to?
II

Could you tell me which band OCCC(F)(F)C(F)(F)C(F)(F)C(F)(F)F belongs to?
III

Could you tell me which band C=CC(=O)OCC(F)(F)C(F)(F)C(F)(F)C(F)(F)C(F)(F)C(F)(F)C(F)(F)C(F)F [1H,1H,9H-Perfluorononyl acrylate] belongs to?
I

Could you tell me which band NC(=O)C(F)(F)C(F)(F)C(F)(F)F [Heptafluorobutyramide] belongs to?
III

Could you tell me which band FC(F)(F)COC(OCC(F)(F)F)OCC(F)(F)F belongs to?
II

Could you tell me which band NCC(F)(F)C(F)(F)C(F)(F)C(F)(F)C(F)(F)C(F)(F)F belongs to?
II

Could you tell me which band FC(F)(F)C(F)(F)C(F)(F)C(F)(F)C(F)(F)C(F)(F)C(F)(F)I belongs to?
III

---

- Test system: human plasma
- ASSAY_METHOD_TEXT: Chemical stability in plasma over the UC assay time course (T5hr/T1hr)
- MEASUREMENT_CONTEXT: median fraction stable in plasma, UC assay Level4
PROPERTY: Fstable.Med
Response field accepts a number only; no unit should be typed.

Use the examples below as a reference point.
>>> df
                                   molecule  measured
0                OCCCC(F)(F)C(F)(F)C(F)(F)F       0.2
1  OCC(F)(F)C(F)(F)C(F)(F)C(F)(F)C(F)(F)C(F)(F)CO     0.989
2                   NC(O)(C(F)(F)F)C(F)(F)F     0.225
3  FC(F)(F)C(F)(F)C(F)(F)C(F)(F)C(F)(F)C(F)(F)C(F)(F)CCI     0.358
4  C=C(C)C(=O)OCCC(F)(F)C(F)(F)C(F)(F)C(F)(F)C(F)(F)C(F)(F)F [6:2 Fluorotelomer methacrylate]    0.0566
5  OCC(F)(F)C(F)(F)C(F)(F)C(F)(F)C(F)(F)C(F)F     0.222
6  C=C(C)C(=O)OCCC(F)(F)C(F)(F)C(F)(F)C(F)(F)C(F)(C(F)(F)F)C(F)(F)F      0.43
7  Cc1ccc(S(=O)(=O)OCC(F)(F)C(F)(F)C(F)(F)C(F)(F)C(F)(F)C(F)F)cc1         1
8  O=C(CC(=O)C(F)(F)C(F)(F)C(F)(F)F)c1cccs1     0.959

Moving on to another molecule below.
# input molecule: OCC(F)(F)C(F)(F)C(F)(F)C(F)(F)C(F)(F)C(F)(F)C(F)(F)C(F)(F)C(F)(F)C(F)(F)C(F)(F)F ; wanted: its Fstable.Med
0.341

Value source: paper PMC10223284
